molecular target: TRPA1 receptor (Homo sapiens, UniProt O75762); construct: expressed in transfected cells; host or cells: HEK cell line; assay: cell-based; design: dose or concentration left out as unconfirmed; conditions: HEK293; percentage of the control (allyl isothiocyanate) calcium count; material dissolved in DMSO at 100 micromolar; HEK cells with TRPA1; pre-incubation; read-out: TRPA1 Pre-incubation;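 as to TRPA1 Pre-incubation: values above 100 mean more active than the control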
Sequence (O75762 whole entry): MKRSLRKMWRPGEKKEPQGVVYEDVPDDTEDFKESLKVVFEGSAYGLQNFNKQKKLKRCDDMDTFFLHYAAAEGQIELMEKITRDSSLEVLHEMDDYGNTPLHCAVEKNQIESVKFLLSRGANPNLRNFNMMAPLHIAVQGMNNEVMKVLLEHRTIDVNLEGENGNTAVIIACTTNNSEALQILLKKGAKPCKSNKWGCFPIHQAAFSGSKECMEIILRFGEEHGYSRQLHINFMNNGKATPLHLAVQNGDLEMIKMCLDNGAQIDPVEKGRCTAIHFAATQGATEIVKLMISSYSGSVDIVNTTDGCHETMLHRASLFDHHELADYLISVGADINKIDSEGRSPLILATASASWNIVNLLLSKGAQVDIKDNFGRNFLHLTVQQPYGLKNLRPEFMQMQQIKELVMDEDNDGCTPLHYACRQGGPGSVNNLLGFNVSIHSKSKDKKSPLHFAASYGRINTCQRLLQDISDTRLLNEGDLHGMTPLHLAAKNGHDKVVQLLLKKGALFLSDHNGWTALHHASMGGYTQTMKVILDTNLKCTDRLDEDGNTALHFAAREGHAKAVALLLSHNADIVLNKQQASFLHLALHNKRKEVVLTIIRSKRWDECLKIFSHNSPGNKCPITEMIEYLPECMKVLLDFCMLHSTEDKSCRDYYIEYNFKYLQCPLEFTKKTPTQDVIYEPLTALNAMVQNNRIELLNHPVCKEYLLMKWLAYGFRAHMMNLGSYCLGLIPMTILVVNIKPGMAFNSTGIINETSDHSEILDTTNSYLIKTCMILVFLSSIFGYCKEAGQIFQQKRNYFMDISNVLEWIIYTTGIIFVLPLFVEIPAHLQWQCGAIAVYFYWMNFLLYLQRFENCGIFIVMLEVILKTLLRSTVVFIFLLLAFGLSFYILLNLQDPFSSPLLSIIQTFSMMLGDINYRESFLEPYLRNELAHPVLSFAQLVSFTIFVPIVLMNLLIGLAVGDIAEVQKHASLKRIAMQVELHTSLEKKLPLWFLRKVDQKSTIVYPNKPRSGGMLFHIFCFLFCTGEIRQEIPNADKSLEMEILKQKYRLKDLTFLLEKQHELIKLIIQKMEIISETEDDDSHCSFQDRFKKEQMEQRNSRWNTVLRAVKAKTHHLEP
Entries get a class label from measured activation. See ranges: low: < 60%; intermediate: ≥ 60% and < 80%; high: ≥ 80%

Please review the following examples before continuing.
CC(C)C(=O)OCc1ccccc1 [Benzyl Isobutyrate] = intermediate
OCCCc1ccccc1 = high
CCCCCCOC(=O)C(C)CC (stereo not drawn) [Hexyl-2-Methylbutyrate] = intermediate
O=C1CCCCCCCCCCCC(=O)OCCO1 [Ethylene Brassylate] = low
CCC/C=C/COC(C)=O [Trans-2-Hexenyl Acetate] = intermediate
CC(=O)c1cc(C)sc1C = intermediate
Cc1nccnc1C = intermediate
CCCCCCCC=O = high

Input: Input CCCCCCC(C)O (stereo not drawn) ; output its category
Output: low

Input: Tag the class for CCCCOC(=O)CCC [Butyl Butyrate]
Output: intermediate

Input: Category of CCc1ncc(C)nc1CC , please.
Output: intermediate

Input: Hey, which category is C=CCOC(=O)CCC [Allyl Butyrate] in, do you know?
Output: high

Input: Which activation category applies to C=C1CCC2CC1C2(C)C (stereo not drawn) here?
Output: intermediate

Input: Class? Entry: CC1=CCC(=C(C)C)CC1
Output: intermediate

Input: Which bin, given its activation, does CC(C)CC(=O)OCC=Cc1ccccc1 [Cinnamyl Isovalerate] occupy?
Output: low

Input: Class? Entry: Cn1cccc1C=O
Output: low

###

We begin with a simple list: items and their reported activation.
biological target: TRPA1 receptor (Homo sapiens); construct: expressed in transfected cells; host or cells: HEK cell line; assay: cell-based; set-up: dose or concentration left out as unconfirmed; conditions: HEK293, read-out: TRPA1 Direct addition
// units = %; emit number, no label

Use these answered entries as a reference point.
CC(=O)O [Acetic Acid] = 0.27
CCOC(=O)Cc1ccccc1 [Ethyl Phenylacetate] = -0.28
CC(C)CCO [Isoamyl Alcohol] = -0.15

Input: Given the molecule O=C1NS(=O)(=O)c2ccccc21.[Na] [Saccharin Sodium] , write its reported activation.
Output: -12.4

Input: Give recorded activation. COC(OC)c1ccccc1 [Benzaldehyde Dimethyl Acetal]
Output: -0.68

Input: Respond only with activation recorded for CC(C)CC=C(C=O)c1ccccc1 [5-Methyl-2-Phenyl-2-Hexenal]
Output: 132

###

target: TRPA1 receptor (Homo sapiens, UniProt O75762); construct: expressed in transfected cells; host or cells: HEK cell line; assay: cell-based; set-up: dose or concentration left out as unconfirmed; settings: HEK293; percentage of the control (allyl isothiocyanate) calcium count; material dissolved in DMSO at 100 micromolar; HEK cells with TRPA1; pre-incubation; read-out: TRPA1 Pre-incubation;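 as to TRPA1 Pre-incubation: values above 100 mean more active than the control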
Property: activation; scope: individual compounds
Respond with the bare value in %.

CCCCCCCCC=O = 51.4
COc1cc(C)cc(OC)c1O = 9.25
CC/C=C\CCOC(=O)C/C=C\CC [cis-3-Hexenyl cis-3-Hexenoate, [(Z)-hex-3-enyl] (Z)-hex-3-enoate] = 122
Cc1cnc(C)c(C)n1 = 48.8
CC1OCCC1=O (stereo not drawn) [2-Methyltetrahydrofuran-3-one] = 77.5

Input: Identify measured activation associated with COC(Cc1ccccc1)OC
Output: 81.4

Input: Please look at this compound and report its activation: CCCCCCO
Output: 66.2

Input: Give reported activation value for CCCCCCCCCCO
Output: 59.8

Input: Kindly indicate its recorded activation. Item: CC/C=C\CC1=C(C)CCC1=O
Output: 51.6

###

molecular target: TRPA1 receptor (Homo sapiens); construct: expressed in transfected cells; host or cells: HEK cell line; test: cell-based; set-up: dose or concentration left out as unconfirmed; conditions: HEK293; percentage of the control (allyl isothiocyanate) calcium count; material dissolved in DMSO at 100 micromolar; HEK cells with TRPA1; pre-incubation; read-out: TRPA1 Pre-incubation;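 as to TRPA1 Pre-incubation: values above 100 mean more active than the control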
property_name: activation (%)
Unit % implied. Number only.

Completed entries (count: 3):
C=CCc1ccc(OC(=O)c2ccccc2)c(OC)c1 [Eugenol benzoate] = 57.3
CCC(C)CO (stereo not drawn) = 71.6
CC(=O)OC(C)c1ccccc1 (stereo not drawn) [Alpha-Methylbenzyl Acetate] = 70.8

# next compound below
Input: Give recorded activation. C=CCOC(=O)c1ccccc1N [Allyl anthranilate]
Output: 99.5

###

Property: TRPA1 Direct addition; scope: individual compounds
target: TRPA1 receptor (Homo sapiens); construct: expressed in transfected cells; host or cells: HEK cell line; assay: cell-based; conditions: percentage of the control (allyl isothiocyanate) calcium count; material dissolved in DMSO at 100 micromolar; HEK cells with TRPA1; direct addition
Unit % implied. Number only.

Below, each entry is followed by its recorded TRPA1 Direct addition result.
C/C=C/c1ccc(OCC)c(OC)c1 [ethyl isoeugenol] = −0.14
CCC=CCCOC(=O)CC(C)C [3-Hexenyl-3-Methylbutanoate] = −1.61
CCCC1CCC(=O)O1 (stereo not drawn) [Gamma Heptalactone] = 1.18
CCOC(=O)/C=C/c1ccccc1 [Ethyl Cinnemate] = 0.45
CCCC(=O)OCc1ccc(OC)cc1 [Anisyl butyrate] = −0.03

Next compound, please.
Input: Supply recorded TRPA1 Direct addition for CCCC(=O)OC(C)c1ccccc1 (stereo not drawn) [methyl benzyl butyrate] here.
Output: −0.34

###

target: TRPA1 receptor (Homo sapiens, UniProt O75762); construct: expressed in transfected cells; host or cells: HEK cell line; assay: cell-based; settings: percentage of the control (allyl isothiocyanate) calcium count; material dissolved in DMSO at 100 micromolar; HEK cells with TRPA1; direct addition
Listed below: TRPA1 Direct addition values for each entry.
Give the value in % but do not write % after it.

Input: Given CC(=O)OCCCc1ccccc1 [Phenyl Propyl Acetate] , respond with its TRPA1 Direct addition.
Output: −9.54

Input: For the compound CC(C)[C@@H]1CC[C@@H](C)CC1=O , give its reported TRPA1 Direct addition.
Output: 4.4

Input: Specify reported TRPA1 Direct addition for the compound shown: CCOC(=O)CSC [Ethyl Methylthio Acetate]
Output: −0.06

Input: Specify reported TRPA1 Direct addition for the compound shown: C=CC(C)(O)CCC=C(C)CC (mixture of isomers)
Output: −0.1

Input: Let me know recorded TRPA1 Direct addition for C=C(C)C1CC=C(C)C(OC(=O)CC)C1 (centres unmarked) [Carvyl Propionate] , thanks.
Output: −0.57

###

target: TRPA1 receptor (Homo sapiens); construct: expressed in transfected cells; host or cells: HEK cell line; experiment: cell-based; conditions: percentage of the control (allyl isothiocyanate) calcium count; material dissolved in DMSO at 100 micromolar; HEK cells with TRPA1; direct addition
Measured TRPA1 Direct addition by item
Field format: number, assumed %, no unit text.

A selection of reference data follows.
CC(=O)OC1C2(C)CCC(C2)C1(C)C (stereo not shown) [Fenchyl Acetate] = −0.1
CC(C)=CC1CC(C)CCO1 (racemic) [Rose Oxide Racemic] = −6.68
CC(C)=CCC/C(C)=C/C=O [Lemarome] = 80.13
CC1CCC(C(C)(C)S)C(=O)C1 (stereo not shown) [P-Mentha-8-Thiol-3-one] = 46.29
CCC(C)C=O (stereo not shown) [2-Methylbutraldehyde] = 81.04
CC(C)=CCCC(C)CCO (stereo not shown) [Cironellol] = −1.03
Cc1ccc(C=O)c(O)c1 [2_Hydroxy-4-Methyl Benzaldehyde] = 0.4
C/C=C/C(=O)C1C(C)C=CCC1(C)C (stereo not shown) [delta-damascone] = 0.74

Input: Dear colleague, please send me the reported TRPA1 Direct addition for C=C/C(C)=C/C/C=C(\C)CCC=C(C)C [Farmesene] when you can.
Output: −0.32

Input: Read the entry CCCCOC(=O)C(C)OC(=O)CCC (stereo not shown) [Butyl Butyryllactate] and write its reported TRPA1 Direct addition.
Output: −1.54

Input: Entry CCC1OC(C)=C(O)C1=O (stereo not shown) [2-Ethyl-4-Hydroxy-5-Methyl-3(2) Furanone] needs its TRPA1 Direct addition filled in; supply it.
Output: −1.06

Input: Given CC(=O)/C=C/C1C(C)=CCCC1(C)C (stereo not drawn) [Alpha-Ionone] , respond with its TRPA1 Direct addition.
Output: −0.9

Input: Name the recorded TRPA1 Direct addition of the molecule listed here: C=C[C@](C)(O)CCC=C(C)C [L-Linalool]
Output: −11.37

Input: Assign TRPA1 Direct addition to the following record: C/C=C/c1ccc(OC(=O)Cc2ccccc2)c(OC)c1 [Iso-eugenyl phenylacetate]
Output: 29.74

###

Measured activation of individual entries
Target: TRPA1 receptor (Homo sapiens, UniProt O75762);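 as to TRPA1 Pre-incubation: values above 100 mean more active than the control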
Construct: expressed in transfected cells; host or cells: HEK cell line
Test: cell-based
Parameters: dose or concentration left out as unconfirmed
Conditions: HEK293; percentage of the control (allyl isothiocyanate) calcium count; material dissolved in DMSO at 100 micromolar; HEK cells with TRPA1; pre-incubation; read-out: TRPA1 Pre-incubation
Procedure: The term “TRPA1 activator” as used herein refers to any component which at a concentration of 1 mM gives a calcium flux count of at least 1000 counts above the background level of calcium present in the cell according to the FLIPR method as discussed herein. The term “count” is defined as the change in fluorescence of the transfected cell lines due to the influx of calcium across the cell membrane, which reacts with the calcium sensitive dye present within the cells. […]

CCCCCCCCCCCC(=O)O = 96%
CC/C=C\CCCCCO [cis-6-Nonen-1-ol] = 98%

Moving on to another molecule below.
Input: Consider the molecule CC(=O)OC(C)(C)Cc1ccccc1 [Alpha, Alpha Dimethylphenethyl Acetate] . State its measured activation.
Output: 72%
